Quick reference: Papp B→A at 90 min, 5 µM of the listed items.
measurement-description: in vitro
applied-conditions: dog, MDCK, Papp B-A Mean
Number only, in ×10⁻⁶ cm/s; omit the unit.

compound: Cc1cc2c(C(N)=O)c(N)n(-c3c(C)ccc(O)c3C)c2nc1C [RP-6306, reference compound]
experimental-value: 37.2

Note: attention shifts to another entry.
Data request: Answer with reported Papp B→A at 90 min, 5 µM of `C[C@H]1O[C@@H](O[C@H]2[C@@H](O)C[C@H](O[C@H]3[C@@H](O)C[C@H](O[C@H]4CC[C@@]5(C)[C@H](CC[C@@H]6[C@@H]5C[C@@H](O)[C@]5(C)[C@@H](C7=CC(=O)OC7)CC[C@]65O)C4)O[C@@H]3C)O[C@@H]2C)C[C@H](O)[C@@H]1O`
Data returned: 4.8

---

measurement-description: in vitro
applied-conditions: dog, MDCK, Papp A-B Sample - 02
reported-metric: Papp A→B at 90 min, 5 µM (×10⁻⁶ cm/s)
Kindly answer with a numeric value in ×10⁻⁶ cm/s, unit omitted.

compound: Cc1cc2c(C(N)=O)c(N)n(-c3c(C)ccc(O)c3C)c2nc1C [RP-6306, reference compound]
quantity-unit: ×10⁻⁶ cm/s
experimental-value: 19.1

// next entry
Data request: Please indicate Papp A→B at 90 min, 5 µM recorded for C[C@H]1O[C@@H](O[C@H]2[C@@H](O)C[C@H](O[C@H]3[C@@H](O)C[C@H](O[C@H]4CC[C@@]5(C)[C@H](CC[C@@H]6[C@@H]5C[C@@H](O)[C@]5(C)[C@@H](C7=CC(=O)OC7)CC[C@]65O)C4)O[C@@H]3C)O[C@@H]2C)C[C@H](O)[C@@H]1O [Digoxin]
Data returned: 1.68

---

measurement-description: In vivo pharmacokinetic experiment in mice
Set-up: species or system CD-1 female mice
applied-conditions: female, CD-1, plasma; mouse, oral administration 10 mg/kg
reported-metric: AUC(0-t) (ng·h/mL)
Your answer should be a plain number; it is taken to be in ng·h/mL.

Data request: Complete the entry with AUC(0-t) for Cc1cc2c(C(N)=O)c(N)n(-c3c(C)ccc(O)c3C)c2nc1C [RP-6306, reference compound]
Data returned: 1030

---

measurement-description: In vivo pharmacokinetic experiment in mice
Design: species or system CD-1 female mice
applied-conditions: female, CD-1, plasma, iv; mouse, injection 2 mg/kg; read-out: Vdss
reported-metric: Vd

Data request: Supply Vd value. Item: Cc1cc2c(C(N)=O)c(N)n(-c3c(C)ccc(O)c3C)c2nc1C [RP-6306, reference compound]
Data returned: 2.46 L/kg

---

measurement-description: In vitro solubility experiment
Format: physicochemical
applied-conditions: organic solvent or mixture, thermodynamic from solid; Methanol, 0.5 h
reported-metric: solubility at 0.5 h

Data request: Please give the documented solubility at 0.5 h of Cc1cc2c(C(N)=O)c(N)n(-c3c(C)ccc(O)c3C)c2nc1C [RP-6306, reference compound]
Data returned: 20.2 mg/mL

---

Test system: P-glycoprotein (P-gp, MDR1)
measurement-description: in vitro
applied-conditions: dog, MDCK-MDR1, Papp B-A Sample - 02
Method: In vitro passive permeability or the ability to serve as a P-glycoprotein (P-gp) transport substrate was tested using MDCK cells (MDCK wild type) or MDCK cells stably transduced with MDRI (MDCK-MDRI), respectively. The permeability experiment was performed in duplicate in a transwell system at a single concentration (5 μM). […]
reported-metric: Papp B→A at 90 min, 5 µM (×10⁻⁶ cm/s)
Your answer should be a plain number; it is taken to be in ×10⁻⁶ cm/s.

Data request: Fill in: Papp B→A at 90 min, 5 µM on P-glycoprotein (P-gp, MDR1), entry Cc1cc2c(C(N)=O)c(N)n(-c3c(C)ccc(O)c3C)c2nc1C [RP-6306, reference compound]
Data returned: 36.2

Data request: System P-glycoprotein (P-gp, MDR1). Read-out Papp B→A at 90 min, 5 µM. Item `C[C@H]1O[C@@H](O[C@H]2[C@@H](O)C[C@H](O[C@H]3[C@@H](O)C[C@H](O[C@H]4CC[C@@]5(C)[C@H](CC[C@@H]6[C@@H]5C[C@@H](O)[C@]5(C)[C@@H](C7=CC(=O)OC7)CC[C@]65O)C4)O[C@@H]3C)O[C@@H]2C)C[C@H](O)[C@@H]1O` . Report value.
Data returned: 23.5
